measuredTarget: human glucagon receptor expressed in transfected CHO cells (human, UniProt P47871 26-477)
testName: cell-based or functional assay
In plain terms, low EC50, Glucagon Functional Assay (cAMP production, HTRF), meaning strictly below 20 nM, gives true (1), and everything else gives false (0).

Lab note: confirm whether the reported EC50, Glucagon Functional Assay (cAMP production, HTRF) for this binder is below 20 nM, equality not counting. binder: HSQGTFTSDYSKYLDSXRAQDFVQWLXNT (A^u at position 17 (urea residue with alanine side chain); Nle (norleucine) at position 27) [Compound 53] true (1)
